B1: C9orf9 (parent)
chain: LTKASLKPRGCSKPPWRPPGGKL

Variants of: B1
PROCEDURE TEXT: protein stability index of a GFP-peptide fusion (GPS, HEK-293T) (PSI 1-6); higher = more stable;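 note: lentivirally expressed fusions sorted by FACS into six bins by GFP to DsRed ratio, PSI derived from sequencing read proportions per bin multiplied by bin number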
TEST PARAMETERS: c terminus: native
READOUT LABEL: protein stability index

Reference set, count: 5
VARIANT DESCRIPTION	READOUT LABEL	RESULT
K3F	protein stability index	1.51
R9V	protein stability index	2.91
L1I	protein stability index	1.71
P18L	protein stability index	1.32
P19L	protein stability index	3.21

Would you be so kind as to report protein stability index for each listed record?
1. T2L
2. L1H
3. S5Q
4. K3T
5. P18W

stdout:
2.26
1.82
3.27
2.19
2.9
